Each recorded value in this set is attributed to patent US4180655A.

Tested on: Leukemia L1210 cells
Test: Chemotherapeutic effect of nitrosourea derivatives on leukemia L1210 in mice
Assay type: in vivo, mice (BDF1/BDF)
Details: 1 mg/kg i.p. once/day for 3 days (procedure A, saline)
Entries annotated with measured Volume of ascites, Treated
Returns: the value as a bare number; no unit string appended.

>>> df
                                item_smiles                    property  recorded_number
0  O=NN(CCCl)C(=O)N[C@@H]1O[C@H](CO)[C@@H](O)[C@H](O)[C@H]1O  Volume of ascites, Treated              5.0
1  O=NN(CCCl)C(=O)N[C@H]1[C@H](O)[C@@H](O)[C@H](O)[C@@H](O)[C@@H]1O  Volume of ascites, Treated              4.5
2  O=NN(CCCl)C(=O)N[C@@H]1O[C@H](CO)[C@H](O)[C@H](O)[C@H]1O  Volume of ascites, Treated              4.6
3  O=NN(CCCl)C(=O)N[C@@H]1O[C@H](CO)[C@@H](O)[C@H](O)[C@@H]1O  Volume of ascites, Treated              2.3

Now consider a different compound.
Request: Given `O=NN(CCCl)C(=O)N[C@@H]1OC[C@@H](O)[C@H](O)[C@H]1O` , state its recorded Volume of ascites, Treated.
Response: 0

---

System: Leukemia L1210 cells
Assay: Chemotherapeutic effect of nitrosourea derivatives on leukemia L1210 in mice
Assay type: in vivo, mice (BDF1/BDF)
Details: 2 mg/kg i.p. once/day for 3 days (procedure A, saline)
property: Volume of ascites, Treated
Returns: the value as a bare number; no unit string appended.

Answered cases to consult:
                                   compound  recorded_number
0  O=NN(CCCl)C(=O)N[C@@H]1O[C@H](CO)[C@@H](O)[C@H](O)[C@H]1O [Compound 1]              2.5
1  O=NN(CCCl)C(=O)N[C@H]1[C@H](O)CCC[C@@H]1O [Compound 4]              0.8
2  O=NN(CCCl)C(=O)N[C@H]1[C@H](O)[C@@H](O)[C@H](O)[C@@H](O)[C@@H]1O [Compound 5]              4.0
3  O=NN(CCCl)C(=O)N[C@@H]1OC[C@@H](O)[C@H](O)[C@H]1O [Compound 3]                0
4  O=NN(CCCl)C(=O)N[C@@H]1O[C@H](CO)[C@@H](O)[C@H](O)[C@@H]1O [Compound 2]              1.2

Now consider a different compound.
Request: What Volume of ascites, Treated appears in the records for this compound with Leukemia L1210 cells? O=NN(CCCl)C(=O)N[C@@H]1O[C@H](CO)[C@H](O)[C@H](O)[C@H]1O [Compound 7]
Response: 0.8

---

Test system: Leukemia L1210 cells
Assay: Chemotherapeutic effect of nitrosourea derivatives on leukemia L1210 in mice
Format: in vivo, mice (BDF1/BDF)
Settings: 10 mg/kg i.p. once/day for 3 days (procedure A, saline)
property: Survival days, Treated (mean) (days)
I only need the number, in days, no unit after it.

>>> df
                                item_smiles                       property  unit  recorded_number
0  O=NN(CCCl)C(=O)N[C@@H]1O[C@H](CO)[C@H](O)[C@H](O)[C@H]1O  Survival days, Treated (mean)  days             18.7
1  O=NN(CCCl)C(=O)N[C@@H]1O[C@H](CO)[C@@H](O)[C@H](O)[C@H]1O  Survival days, Treated (mean)  days             95.9

Now consider a different molecule.
Request: Given `O=NN(CCCl)C(=O)N[C@H]1[C@H](O)[C@@H](O)[C@H](O)[C@@H](O)[C@@H]1O` , state its recorded Survival days, Treated (mean).
Response: 15.5

---

Test system: Leukemia L1210 cells
Test: Chemotherapeutic effect of nitrosourea derivatives on leukemia L1210 in mice
Format: in vivo, mice (BDF1/BDF)
Conditions: Mus musculus, L1210, ip, 72 h; 4 mg/kg i.p. once/day for 3 days (procedure A, saline); read-out: Percentage increase in life-span (ILS)
property: ILS at 4 mg/kg

Answered cases to consult:
>>> print(df.to_string())
                                   molecule        property  result
0  O=NN(CCCl)C(=O)N[C@@H]1O[C@H](CO)[C@@H](O)[C@H](O)[C@H]1O [Compound 1]  ILS at 4 mg/kg    333%
1  O=NN(CCCl)C(=O)N[C@@H]1O[C@H](CO)[C@@H](O)[C@H](O)[C@@H]1O [Compound 2]  ILS at 4 mg/kg   66.7%
2  O=NN(CCCl)C(=O)N[C@H]1[C@H](O)[C@@H](O)[C@H](O)[C@@H](O)[C@@H]1O [Compound 5]  ILS at 4 mg/kg     34%

Request: Given O=NN(CCCl)C(=O)N[C@@H]1OC[C@@H](O)[C@H](O)[C@H]1O [Compound 3] , state its recorded ILS at 4 mg/kg.
Response: > 446%

Request: Given O=NN(CCCl)C(=O)N[C@@H]1O[C@H](CO)[C@H](O)[C@H](O)[C@H]1O [Compound 7] , state its recorded ILS at 4 mg/kg.
Response: > 405%

Request: Given O=NN(CCCl)C(=O)N[C@H]1[C@H](O)CCC[C@@H]1O [Compound 4] , state its recorded ILS at 4 mg/kg.
Response: > 482%

---

System: Leukemia L1210 cells
Assay: Chemotherapeutic effect of nitrosourea derivatives on leukemia L1210 in mice
Type: in vivo, mice (BDF1/BDF)
Conditions: 4 mg/kg i.p. once/day for 3 days (procedure A, saline)
Protocol: Chemotherapeutic effect of a variety of the nitrosourea derivatives of the formula I according to this invention on leukemia L1210 in mice were investigated by the following method and materials. […] A--The test compound was dissolved in a physiological saline solution and administered intraperitoneally at a volume of 0.1 ml/mouse. […] The effect of test compound was assessed by mean survival days of mice, percent increase in life-span, anatomical findings involving the volume of ascites. […]
Entries annotated with measured Survival days, Treated (mean)
I only need the number, in days, no unit after it.

Answered cases to consult:
>>> df
                                item_smiles        assayed_target                       property  unit  recorded_number
0  O=NN(CCCl)C(=O)N[C@H]1[C@H](O)[C@@H](O)[C@H](O)[C@@H](O)[C@@H]1O  Leukemia L1210 cells  Survival days, Treated (mean)  days             13.0
1  O=NN(CCCl)C(=O)N[C@@H]1O[C@H](CO)[C@@H](O)[C@H](O)[C@H]1O  Leukemia L1210 cells  Survival days, Treated (mean)  days             40.3

Now consider a different molecule.
Request: Given `O=NN(CCCl)C(=O)N[C@@H]1O[C@H](CO)[C@@H](O)[C@H](O)[C@@H]1O` , state its recorded Survival days, Treated (mean).
Response: 15.0

---

Entries annotated with measured ILS at 10 mg/kg
Test system: Leukemia L1210 cells
Experiment: Chemotherapeutic effect of nitrosourea derivatives on leukemia L1210 in mice
Assay type: in vivo, mice (BDF1/BDF)
Conditions: Mus musculus, L1210, ip, 72 h; 10 mg/kg i.p. once/day for 3 days (procedure A, saline); read-out: Percentage increase in life-span (ILS)
I only need the number, in %, no unit after it.

Answered cases to consult:
                                   molecule        assayed_target  unit  recorded_number
0  O=NN(CCCl)C(=O)N[C@H]1[C@H](O)[C@@H](O)[C@H](O)[C@@H](O)[C@@H]1O [Compound 5]  Leukemia L1210 cells     %             59.8
1  O=NN(CCCl)C(=O)N[C@@H]1O[C@H](CO)[C@@H](O)[C@H](O)[C@H]1O [Compound 1]  Leukemia L1210 cells     %              931

Request: Given O=NN(CCCl)C(=O)N[C@@H]1O[C@H](CO)[C@H](O)[C@H](O)[C@H]1O [Compound 7] , state its recorded ILS at 10 mg/kg.
Response: 101

---

Entries annotated with measured Survival days, Treated (mean)
System: Leukemia L1210 cells
Test: Chemotherapeutic effect of nitrosourea derivatives on leukemia L1210 in mice
Type: in vivo, mice (BDF1/BDF)
Conditions: 4 mg/kg i.p. once/day for 3 days (procedure A, saline)

Answered cases to consult:
>>> print(df.to_string())
                                   molecule                       property       result
0  O=NN(CCCl)C(=O)N[C@@H]1O[C@H](CO)[C@H](O)[C@H](O)[C@H]1O [Compound 7]  Survival days, Treated (mean)  > 47.0 days
1  O=NN(CCCl)C(=O)N[C@@H]1OC[C@@H](O)[C@H](O)[C@H]1O [Compound 3]  Survival days, Treated (mean)  > 60.0 days

Now consider a different molecule.
Request: Given O=NN(CCCl)C(=O)N[C@H]1[C@H](O)CCC[C@@H]1O [Compound 4] , state its recorded Survival days, Treated (mean).
Response: > 60.0 days
